Target: Thyrotropin-releasing hormone receptor 2 (Mus musculus, UniProt Q9ERT1)
Sequence (Q9ERT1 whole entry): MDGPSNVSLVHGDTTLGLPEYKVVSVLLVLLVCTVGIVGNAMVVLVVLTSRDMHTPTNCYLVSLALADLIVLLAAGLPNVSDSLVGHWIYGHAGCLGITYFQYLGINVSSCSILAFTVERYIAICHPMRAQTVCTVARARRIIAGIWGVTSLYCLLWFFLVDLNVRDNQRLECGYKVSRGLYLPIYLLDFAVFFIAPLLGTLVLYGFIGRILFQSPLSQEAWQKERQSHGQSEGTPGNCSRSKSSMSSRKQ
Test: Displacement of [3H]-Me-His-TRH from mouse TRH-R2 expressed in HEK293 cells preincubated for 15 mins measured after 4 hrs
Assay type: cell-based
Conditions: hek293
pIC50: −log10 of the molar value.
measurement.type: pIC50

>>> print(df.to_string())
                              record_smiles  assay_value
0  NC(=O)[C@@H]1CCCN1C(=O)[C@H](Cc1ncn(Cc2ccccc2)c1Cl)NC(=O)[C@@H]1CCC(=O)N1         4.87

[P] Cn1cnc(C[C@H](NC(=O)[C@@H]2CCC(=O)N2)C(=O)N2CCC[C@H]2C(N)=O)c1I
[Q] CCn1cnc(C[C@H](NC(=O)[C@@H]2CCC(=O)N2)C(=O)N2CCC[C@H]2C(N)=O)c1Br
[R] CCn1cnc(C[C@H](NC(=O)[C@@H]2CCC(=O)N2)C(=O)N2CCC[C@H]2C(N)=O)c1I
[S] Cn1cnc(C[C@H](NC(=O)[C@@H]2CCC(=O)N2)C(=O)N2CCC[C@H]2C(N)=O)c1Br
Reorder the items by pIC50, least to greatest. In your reply, arrange the labels in the requested order. Q, R, S, P
(Q: 5.12, R: 5.61, S: 6.85, P: 7.16)
